Tested on: HSV-1
Test: Antiviral activity against HSV-1 (first line)
Format: cell-based
Settings: Human alphaherpesvirus 1; primary rabbit kidney cell cultures; first HSV-1 line; read-out: Minimal Inhibitory Concentration (required to reduce virus-induced cytopathogenicity by 50%)
pIC50: −log10 of the molar value.
ATTRIBUTE MEASURED: pIC50

Read the entry Nc1ncnc2c1ncn2[C@H]1CC[C@@H](CO)O1 [2',3'-dideoxyadenosine] and write its reported pIC50.
< 2.70

Read the entry O=c1ccn([C@H]2CC[C@@H](CO)O2)c(=O)[nH]1 [Dideoxyuridine] and write its reported pIC50.
< 2.70

Read the entry Nc1ccn([C@H]2CC[C@@H](CO)O2)c(=O)n1 [2',3'-dideoxycytidine] and write its reported pIC50.
< 2.70

Read the entry Cc1cn([C@H]2CC[C@@H](CO)O2)c(=O)[nH]c1=O [2',3'-dideoxythymidine] and write its reported pIC50.
< 2.70
